Hello, the source for this data is ChEMBL document CHEMBL5321209, in case you need it.

Assay: Tmax in BALB/c mouse at 30 mg/kg, po measured after 0.5 to 24 hrs by LC-MS/MS assay
Assay type: ADME, organism-based
Conditions: in vivo, time 0.5-24 hrs
Measured Endpoint: Tmax (min)
Unit min implied. Number only.

• C[C@H]1CCCN1Cc1nc2cc(NC(=O)c3ccc4c(cnn4C)c3)ccc2[nH]1 = 30

# input Recorded Tmax of "C[C@H]1CCCN1Cc1nc2cc(NC(=O)c3ccc4c(c3)c3ccccc3c(=O)n4C)ccc2[nH]1" , please.
# output 30

----------
Molecular target: Protein ENL (Homo sapiens, UniProt Q03111)
Sequence (Q03111 whole entry): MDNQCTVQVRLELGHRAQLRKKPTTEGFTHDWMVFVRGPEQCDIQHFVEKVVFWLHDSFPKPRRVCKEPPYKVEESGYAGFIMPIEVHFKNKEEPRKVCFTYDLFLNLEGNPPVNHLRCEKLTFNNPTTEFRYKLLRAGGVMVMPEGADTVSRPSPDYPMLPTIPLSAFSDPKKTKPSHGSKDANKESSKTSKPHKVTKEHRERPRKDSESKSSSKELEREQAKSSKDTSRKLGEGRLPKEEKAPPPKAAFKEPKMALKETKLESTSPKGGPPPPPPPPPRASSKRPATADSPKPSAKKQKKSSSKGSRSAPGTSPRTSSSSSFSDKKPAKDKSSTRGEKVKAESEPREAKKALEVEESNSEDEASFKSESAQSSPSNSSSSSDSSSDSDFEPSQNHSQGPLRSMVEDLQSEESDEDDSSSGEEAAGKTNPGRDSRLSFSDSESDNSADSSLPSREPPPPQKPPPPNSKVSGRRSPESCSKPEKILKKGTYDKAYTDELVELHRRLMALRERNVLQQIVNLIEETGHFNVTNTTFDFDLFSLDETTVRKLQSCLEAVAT
Test: Inhibition of recombinantC-terminal 6xHis-tagged ENL YEATS domain (1 to 148 residues) (unknown origin) expressed in Escherichia coli BL21(DE3) cells using H3(13-32)K27cr as substrate by FRET assay
Measured Endpoint: IC50 (µM)
Unit µM implied. Number only.

# input Recorded IC50 of "O=C(/C=C/c1ccc(-n2ccnc2)cc1)N1CCN(C(=O)c2ccco2)CC1" , please.
# output 19
